Molecular target: T1, GLP-1R (INS1e assay) (UniProt P32301 22-463, limits assumed)
T1 sequence (looked up): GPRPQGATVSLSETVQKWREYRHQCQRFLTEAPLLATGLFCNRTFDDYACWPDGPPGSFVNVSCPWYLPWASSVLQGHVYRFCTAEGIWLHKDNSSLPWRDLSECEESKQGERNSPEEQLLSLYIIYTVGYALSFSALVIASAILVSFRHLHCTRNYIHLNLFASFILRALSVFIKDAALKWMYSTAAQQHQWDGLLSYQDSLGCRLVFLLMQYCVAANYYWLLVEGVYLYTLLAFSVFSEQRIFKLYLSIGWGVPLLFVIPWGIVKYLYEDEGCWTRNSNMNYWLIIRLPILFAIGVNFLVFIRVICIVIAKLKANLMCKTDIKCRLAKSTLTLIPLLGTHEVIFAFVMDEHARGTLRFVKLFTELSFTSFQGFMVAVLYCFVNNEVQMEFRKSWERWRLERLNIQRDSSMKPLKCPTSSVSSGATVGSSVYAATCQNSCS
Test: cell-based or functional assay
Starred links: 1 amine or outer side, 2 acyl side, 3 side chain; linkers in the order of their positions; H or OH if unused. Non-standard residues stand in square brackets, D forms with d. Groups on a side chain read outwards from the residue. Primed or numbered codes have the meaning given here. No end group written: not given here. *: point of attachment. Dodecylbenzoate = dodecylbenzoyl lipid group; γGlu = O=C(O)[C@H](CCC(=O)[*:2])N[*:1]; Stearoyl = CCCCCCCCCCCCCCCCCC(=O)*; αMeF = C[C@](N)(Cc1ccccc1)C(=O)O; αMeK = C[C@](N)(CCCCN)C(=O)O; Lauroyl = CCCCCCCCCCCC(=O)*; αMeS = C[C@](N)(CO)C(=O)O; PEG2′ = not defined here; Aib = CC(C)(N)C(=O)O; Ahx = NCCCCCC(=O)O
Hi there, I'd appreciate the recorded INS1e assay EC50 Mean pM GLP-1R for every entry that follows.
Could you give me the number in pM? Just the number is fine.

Record request: INS1e assay EC50 Mean pM GLP-1R value, item H[Aib]EGS[αMeF]TSDV[αMeS]S[αMeF]LEGEAAK([PEG2′-PEG2′-PEG2′-Lauroyl])E[αMeF]IA[αMeF]VV[αMeK]GG-NH2 [SEQ ID NO 136]
37

Record request: INS1e assay EC50 Mean pM GLP-1R value, item H[Aib]EGS[αMeF]TSDV[αMeS]S[αMeF]LEGEAA[Aib]EFIK([PEG2′-PEG2′-γGlu-Stearoyl])WVVEGG-NH2 [SEQ ID NO 67]
12100

Record request: INS1e assay EC50 Mean pM GLP-1R value, item H[Aib]EGS[αMeF]TSDV[αMeS]S[αMeF]LEGEAA[αMeK]E[αMeF]IA[αMeF]VVK([Ahx-Ahx-Dodecylbenzoate])GG-NH2 [SEQ ID NO 177]
510

Record request: INS1e assay EC50 Mean pM GLP-1R value, item H[Aib]EGS[αMeF]TSDV[αMeS]S[αMeF]LEGEAA[αMeK]E[αMeF]IA[αMeF]VVK([PEG2′-PEG2′-γGlu-Stearoyl])GG-NH2 [SEQ ID NO 101]
4060
